protocol.details: Stability against liver microsomes
Format: in vitro ADME, human
condition.description: 2 μM, 37° C., 24 h
Measured % degradation in 24 h when incubated with liver microsomes, listed per entry for reference.
result.type: % degradation in 24 h when incubated with liver microsomes (%)

compound	result.units	data.value
CCc1cc(OC)ccc1-c1ccc(CC(NC(=O)[C@H](CC(=O)O)NC(=O)[C@H](CO)NC(=O)[C@@H](NC(=O)C(C)(Cc2ccccc2F)NC(=O)[C@@H](NC(=O)CNC(=O)[C@H](CCC(N)=O)NC(=O)C(C)(C)NC(=O)[C@@H](N)Cc2c[nH]cn2)[C@@H](C)O)[C@@H](C)O)C(=O)NC(Cc2ccc(-c3ccccc3C)nc2)C(N)=O)cc1 (single isomer, unassigned)	%	33
CCc1cc(OC)ccc1-c1ccc(CC(NC(=O)[C@H](CC(=O)O)NC(=O)[C@H](CO)NC(=O)[C@@H](NC(=O)[C@H](Cc2ccccc2)NC(=O)[C@@H](NC(=O)CNC(=O)[C@H](CCC(N)=O)NC(=O)[C@H](C)NC(=O)[C@@H](N)Cc2c[nH]cn2)[C@@H](C)O)[C@@H](C)O)C(=O)NC(Cc2ccc(-c3ccccc3C)cc2)C(N)=O)cc1 (single isomer, unassigned)	%	100
CCc1cc(OC)ccc1-c1ccc(CC(NC(=O)[C@H](CC(=O)O)NC(=O)[C@H](CO)NC(=O)[C@@H](NC(=O)C(C)(Cc2ccccc2F)NC(=O)[C@@H](NC(=O)CNC(=O)[C@H](CCC(N)=O)NC(=O)[C@H](C)NC(=O)[C@@H](N)Cc2c[nH]cn2)[C@@H](C)O)[C@@H](C)O)C(=O)NC(Cc2ccc(-c3ccccc3C)cc2)C(N)=O)cc1 (single isomer, unassigned)	%	83
